System: OVCAR-4 ovarian
protocol_details: NCI tumour cell line growth inhibition, 48 h
Parameter: TGI. Scope: all listed entries.

[[record]]
compound = "CCOC(=O)c1cccc([N+](=O)[O-])c1N"
target = "OVCAR-4 ovarian"
recorded_result = "> 100 µM"


query: Consider the compound `[C-]#[O+].[Cl][Sn]([Cl])[Cl].[Cl][Sn]([Cl])[Cl].[Pt].c1ccncc1` and give its measured TGI.
result: > 100 µM

query: Try this compound too: `O=C1NC(=O)C(C(c2ccc(Cl)cc2)C2C(=O)NC(=O)NC2=O)C(=O)N1`
result: > 100 µM

query: Try this compound too: `O=C(O)c1cc(=O)[nH]c(=S)[nH]1`
result: > 100 µM

query: Try this compound too: `O=C(CCCc1ccccn1)c1ccccc1`
result: > 100 µM

query: Try this compound too: `COC(=NCCC1=CCCCC1)OC`
result: > 100 µM

query: Try this compound too: `N#Cc1cccc(NC(=O)c2oc3ccccc3c2-c2cnn(-c3ccccc3)c2)c1`
result: > 500 µM

query: Try this compound too: `COC(=O)[C@@]1(C)CC[C@]2(C)CC[C@]3(C)C4=CC=C5C(=CC(=O)C(O)=C5C)[C@]4(C)CC[C@@]3(C)[C@@H]2C1`
result: 0.424 µM

query: Try this compound too: `CCC[CH2][Sn]([CH2]CCC)([O]C(=O)c1nccnc1N)[O]C(=O)c1nccnc1N`
result: 3.49 µM

query: Try this compound too: `N#Cc1c(-c2ccccc2)cc(-c2ccccc2)n(CCCCC(=O)NO)c1=O`
result: 16.5 µM

query: Try this compound too: `CCOc1ccc(N=Nc2ccc3oc(=O)c(C(=O)Nc4ccc(OC)cc4)cc3c2)cc1`
result: 52.9 µM
